- system.tested: Human CaV2.2 channels (Homo sapiens, UniProt Q00975)
- Construct: expressed in transfected cells
- Sequence (Q00975 whole entry): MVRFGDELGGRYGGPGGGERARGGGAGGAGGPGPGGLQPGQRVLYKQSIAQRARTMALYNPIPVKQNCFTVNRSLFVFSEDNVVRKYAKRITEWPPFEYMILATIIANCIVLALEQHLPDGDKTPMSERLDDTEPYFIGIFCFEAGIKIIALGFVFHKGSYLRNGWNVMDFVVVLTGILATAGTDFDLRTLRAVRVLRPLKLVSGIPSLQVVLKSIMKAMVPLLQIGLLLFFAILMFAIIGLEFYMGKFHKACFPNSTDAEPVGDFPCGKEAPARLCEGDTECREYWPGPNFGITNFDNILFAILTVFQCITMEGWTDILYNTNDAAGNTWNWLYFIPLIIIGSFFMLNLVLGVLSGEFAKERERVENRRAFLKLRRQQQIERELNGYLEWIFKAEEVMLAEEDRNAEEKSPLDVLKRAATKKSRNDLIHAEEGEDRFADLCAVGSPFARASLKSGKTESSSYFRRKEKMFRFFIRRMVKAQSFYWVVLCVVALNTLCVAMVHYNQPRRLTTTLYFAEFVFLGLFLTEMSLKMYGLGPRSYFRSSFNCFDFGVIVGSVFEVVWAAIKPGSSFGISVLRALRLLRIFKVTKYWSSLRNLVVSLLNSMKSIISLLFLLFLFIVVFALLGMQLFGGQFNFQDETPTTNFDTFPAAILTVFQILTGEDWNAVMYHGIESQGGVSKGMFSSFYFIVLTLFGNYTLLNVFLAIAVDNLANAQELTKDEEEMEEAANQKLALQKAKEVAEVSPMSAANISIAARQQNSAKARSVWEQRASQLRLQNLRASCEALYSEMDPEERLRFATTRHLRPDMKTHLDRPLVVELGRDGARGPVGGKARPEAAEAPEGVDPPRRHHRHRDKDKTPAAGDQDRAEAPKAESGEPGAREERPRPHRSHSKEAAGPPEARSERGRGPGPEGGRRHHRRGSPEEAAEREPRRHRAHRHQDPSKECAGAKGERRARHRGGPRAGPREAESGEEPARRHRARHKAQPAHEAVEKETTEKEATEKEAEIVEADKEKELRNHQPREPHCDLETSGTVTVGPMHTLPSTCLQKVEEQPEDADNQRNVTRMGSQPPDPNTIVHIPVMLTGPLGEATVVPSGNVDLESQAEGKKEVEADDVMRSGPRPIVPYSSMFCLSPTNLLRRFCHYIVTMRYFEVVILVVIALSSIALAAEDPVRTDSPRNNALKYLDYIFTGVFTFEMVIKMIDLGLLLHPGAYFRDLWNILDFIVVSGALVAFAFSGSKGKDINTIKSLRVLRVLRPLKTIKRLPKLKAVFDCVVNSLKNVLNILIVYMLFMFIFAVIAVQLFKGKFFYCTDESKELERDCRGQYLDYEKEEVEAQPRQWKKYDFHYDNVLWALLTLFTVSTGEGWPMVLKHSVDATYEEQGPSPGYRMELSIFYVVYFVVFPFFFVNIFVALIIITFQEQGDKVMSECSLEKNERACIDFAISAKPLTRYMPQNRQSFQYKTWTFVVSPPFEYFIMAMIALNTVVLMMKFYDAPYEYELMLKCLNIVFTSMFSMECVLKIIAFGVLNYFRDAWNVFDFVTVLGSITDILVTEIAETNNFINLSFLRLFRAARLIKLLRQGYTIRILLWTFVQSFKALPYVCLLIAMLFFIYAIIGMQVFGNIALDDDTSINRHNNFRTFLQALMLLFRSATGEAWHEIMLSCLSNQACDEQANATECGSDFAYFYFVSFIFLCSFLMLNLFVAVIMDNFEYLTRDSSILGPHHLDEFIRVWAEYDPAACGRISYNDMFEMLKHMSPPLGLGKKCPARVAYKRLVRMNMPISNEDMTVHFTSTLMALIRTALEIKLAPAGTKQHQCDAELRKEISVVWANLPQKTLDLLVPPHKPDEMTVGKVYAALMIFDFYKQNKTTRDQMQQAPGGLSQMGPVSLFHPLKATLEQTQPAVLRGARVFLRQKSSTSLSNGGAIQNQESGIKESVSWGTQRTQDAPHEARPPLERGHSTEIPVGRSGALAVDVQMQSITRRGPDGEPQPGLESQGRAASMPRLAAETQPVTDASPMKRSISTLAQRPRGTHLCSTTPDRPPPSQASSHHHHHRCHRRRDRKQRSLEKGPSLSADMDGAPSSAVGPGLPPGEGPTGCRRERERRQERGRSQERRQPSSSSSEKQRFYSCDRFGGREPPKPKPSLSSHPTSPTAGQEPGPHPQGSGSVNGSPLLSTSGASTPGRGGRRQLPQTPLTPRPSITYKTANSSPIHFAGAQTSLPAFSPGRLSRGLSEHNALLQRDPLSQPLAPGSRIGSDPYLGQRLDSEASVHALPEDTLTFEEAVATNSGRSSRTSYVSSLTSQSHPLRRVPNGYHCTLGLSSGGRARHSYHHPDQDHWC
- experimental.protocol: Fluorescence assay for CaV2.2 channels using potassium depolarization to induce channel opening (FLIPR, Fluo 4)
- Type: cell-based
- test.conditions: HEK293, 3 μM test compound; 30 mM KCl (alternative assay buffer, inactivated channel state); HEK293 cells; read-out: Activity Category: %-Inhib (CaV2.2) @3 μM @30 mM KCl
Known inhibition at 3 µM of a selection of compounds
measure.name: inhibition at 3 µM

* CC1(S(=O)(=O)c2cccc(C(F)(F)F)c2)CCOC(c2cc(C(F)(F)F)nn2CCS(C)(=O)=O)C1 (stereo not drawn) [Example 19 cis-EN2] | > 95%
* CC1(S(=O)(=O)c2cccc(C(F)(F)F)c2)CCOC(c2cc(C(F)(F)F)nn2CC(N)=O)C1 (stereo not drawn) [Example 11 cis-EN1] | 75 to 95%
* CC1(S(=O)(=O)c2cccc(C(F)(F)F)c2)CCOC(c2cc(C(F)(F)F)nn2C2COC2)C1 (stereo not drawn) [Example 17 cis-EN1] | 75 to 95%
* CN(C)C(=O)Cn1nc(C(F)(F)F)cc1C1CC(C)(S(=O)(=O)c2cccc(C(F)(F)F)c2)CCO1 (stereo not drawn) [Example 28 cis-EN1] | 75 to 95%
* COCCCn1nc(C(F)(F)F)cc1C1CC(C)(S(=O)(=O)c2cccc(C(F)(F)F)c2)CCO1 (racemic) [Example 10 cis-rac] | > 95%
* COCn1nc(C(F)(F)F)cc1C1CC(C)(S(=O)(=O)c2cccc(C(F)(F)F)c2)CCO1 (stereo not drawn) [Example 21 cis-EN1] | > 95%
* CC1(S(=O)(=O)c2cccc(C(F)(F)F)c2)CCOC(c2cc(C(F)(F)F)nn2CCO)C1 (stereo not drawn) [Example 2 cis-EN1] | 75 to 95%
* CC1(S(=O)(=O)c2cccc(C(F)(F)F)c2)CCOC(c2cc(C(F)(F)F)nn2CC2(N)CC2)C1 (racemic) [Example 15 cis-rac] | > 95%
* CC(CO)Cn1nc(C(F)(F)F)cc1C1CC(C)(S(=O)(=O)c2cccc(C(F)(F)F)c2)CCO1 (racemic) [Example 24 cis-rac] | > 95%
* CC1(S(=O)(=O)c2cccc(C(F)(F)F)c2)CCOC(c2cc(C(F)(F)F)nn2CCO)C1 (racemic) [Example 2 trans-rac] | 40 to 75%
* CC1(S(=O)(=O)c2cccc(C(F)(F)F)c2)CCOC(c2cc(S(=O)(=O)C(F)F)nn2CCO)C1 (stereo not drawn) [Example 25 cis-EN1] | 75 to 95%
* COCCn1nc(S(C)(=O)=O)cc1C1CC(C)(S(=O)(=O)c2cccc(C(F)(F)F)c2)CCO1 (racemic) [Example 23 cis-rac] | 75 to 95%
* CC(C)(CO)n1nc(C(F)(F)F)cc1C1CC(C)(S(=O)(=O)c2cccc(C(F)(F)F)c2)CCO1 (stereo not drawn) [Example 6 cis-EN1] | 75 to 95%
* CC1(S(=O)(=O)c2cccc(C(F)(F)F)c2)CCOC(c2cc(C(F)(F)F)nn2CS(C)(=O)=O)C1 (racemic) [Example 18 cis-rac] | > 95%
* CNC(=O)Cn1nc(C(F)(F)F)cc1C1CC(C)(S(=O)(=O)c2cccc(C(F)(F)F)c2)CCO1 (stereo not drawn) [Example 29 cis-EN1] | 75 to 95%
* COCn1nc(C(F)F)cc1C1CC(C)(S(=O)(=O)c2cccc(C(F)(F)F)c2)CCO1 (stereo not drawn) [Example 5 cis-EN1] | 75 to 95%

###

- system.tested: Human CaV2.2 channels (Homo sapiens, UniProt Q00975)
- Construct: expressed in transfected cells
- experimental.protocol: Fluorescence assay for CaV2.2 channels using potassium depolarization to induce channel opening (FLIPR, Fluo 4)
- Assay type: cell-based
- test.conditions: HEK293, 3 μM test compound; 30 mM KCl (alternative assay buffer, inactivated channel state); HEK293 cells; read-out: Activity Category: %-Inhib (CaV2.2) @3 μM @30 mM KCl
measure.name: inhibition at 3 µM

- CC1(S(=O)(=O)c2cccc(C(F)(F)F)c2)CCOC(c2cc(C(F)(F)F)nn2CCCO)C1 (stereo not drawn) [Example 9 cis-EN1]: 75 to 95%
- CC1(S(=O)(=O)c2cccc(C(F)(F)F)c2)CCOC(c2cc(C(F)(F)F)nn2C2CS(=O)(=O)C2)C1 (stereo not drawn) [Example 20 cis-EN1]: 75 to 95%
- CC(C)(C(N)=O)n1nc(C(F)(F)F)cc1C1CC(C)(S(=O)(=O)c2cccc(C(F)(F)F)c2)CCO1 (stereo not drawn) [Example 26 cis-EN1]: > 95%
- CC1(S(=O)(=O)c2cccc(C(F)(F)F)c2)CCOC(c2cc(S(C)(=O)=O)nn2CCO)C1 (stereo not drawn) [Example 4 cis-EN1]: 40 to 75%
